Entry source: ChEMBL document CHEMBL1201862

test system: SK-MEL-5; test: NCI tumour cell line growth inhibition, 48 h
The source made the active and inactive calls. Cut-off read from the data, not from the text of the source: active = GI50 up to about 1.1 µM and inactive = higher.
readout.kind: GI50

molecule: Oc1ccccc1/C=N/c1ccc(-c2nc3ccccc3s2)cc1
GI50: 15.1 µM (inactive)

molecule: O=[N+]([O-])c1ccc(/C=C/c2ccc(/N=N/c3ccc(/C=C/c4ccc([N+](=O)[O-])cc4S(=O)(=O)O)c(S(=O)(=O)O)c3)cc2S(=O)(=O)O)c(S(=O)(=O)O)c1
GI50: > 100 µM (inactive)

molecule: OC/C=C/[C@H](OCc1ccccc1)[C@H](/C=C/CO)OCc1ccccc1
GI50: 27.9 µM (inactive)

For COc1ccc(/C=C2\CN(C)Cc3c2nc(N)nc3-c2ccc(OC)cc2)cc1 , what is its reported GI50? 26.9 µM (inactive)

Value lookup for GI50; key = O=C1NN=C(O)C2C3c4ccccc4C(c4ccccc43)C12 (stereo not given) > 100 µM (inactive)

###

system: U-251; assay: NCI tumour cell line growth inhibition, 48 h
Calls of active or inactive are those of the source. Rule as the data show it: active = GI50 up to about 1.1 µM and inactive = higher.
Hi! Could you answer with just one of these? 1 (yes) (active), 0 (no) (inactive)

molecule: Cc1nc2nnc(CCCCCCCCc3nnc4nc(C)[nH]n34)n2[nH]1
group: 0 (no)

Give the logged outcome of this assay for the following molecule: O=C(c1ccccc1)c1nnn(Cc2cccc(Cl)c2)c1C(=O)c1ccccc1 0 (no)

###

tested on: HCC 2998; assay: NCI tumour cell line growth inhibition, 48 h
The source made the active and inactive calls. No stated cut-off is given here; in the data, active = GI50 up to about 1.1 µM and inactive = higher.
Field 'call' accepts 1 for active, 0 for inactive

molecule: Cc1n[nH]c(=O)n1/N=C/c1cccc(Cl)c1
system.under.test: HCC 2998
group: 0

molecule: CCN1C(=O)N2C(OC)c3ccccc3C(Br)C2(OC)C1=O (stereo not drawn)
system.under.test: HCC 2998
group: 0

molecule: CCOC(=O)/C(Br)=C1/OC(=O)c2ccccc2-c2ccccc21.CCOC(=O)/C(Br)=C1\OC(=O)c2ccccc2-c2ccccc21
system.under.test: HCC 2998
group: 0

molecule: COc1ccc(Br)c2c1CC(C(=O)O)CC2 (stereo not drawn)
system.under.test: HCC 2998
group: 0

molecule: CC(NNC(=O)c1cc[n+]([BH2-]C#N)cc1)c1cccc(F)c1 (stereo not drawn)
system.under.test: HCC 2998
group: 0

Name the outcome recorded for COc1ccc(/C=C2\CCCC(CN(C)C)C2=O)cc1 (stereo not drawn) in the assay. 0

In this assay, the call recorded for CC(C)[Si]1(C(C)C)OCC2OC(N3C(=O)NC(=O)C[C@@H]3C(O)c3ccccc3)CC2O[Si](C(C)C)(C(C)C)O1 (stereo partly drawn) was what? 0

// outcome(item) with item = Cn1cnc2c1c(=O)n(CCNCCO)c(=O)n2C 0

What was the test verdict on O=[N+]([O-])c1ccc(-c2ccc(-c3csc(Nc4ccccn4)n3)o2)cc1 ? 0

Identify the outcome logged in this assay for the molecule shown: COc1cc2c(cc1C1COc3cc4occc4cc3C1=O)OCO2 (stereo not drawn) 0

###

system: SK-MEL-28; assay: NCI tumour cell line growth inhibition, 48 h
Calls of active or inactive are those of the source. Rule as the data show it: active = GI50 up to about 1.1 µM and inactive = higher.
Each entry below lists one item and its recorded GI50 value.

Solved cases below.
compound: Nc1ccc(Cn2ccc3c4c(N)nc(N)nc4ccc32)cc1
test.value: 0.128 µM (active)

compound: O=C1C=CC[C@H](/C=C/C[C@@H](O)C[C@H](O)/C=C/c2ccccc2)O1
test.value: 16.7 µM (inactive)

compound: O=[N+]([O-])c1ccc(/C=C/c2ccc(/N=N/c3ccc(/C=C/c4ccc([N+](=O)[O-])cc4S(=O)(=O)O)c(S(=O)(=O)O)c3)cc2S(=O)(=O)O)c(S(=O)(=O)O)c1
test.value: > 100 µM (inactive)

compound: CC1(c2ccc(Cl)cc2)N=C(NCCO)c2ccccc21 (centres undefined)
test.value: 9.75 µM (inactive)

compound: O=C1OC[C@@H]2[C@@H](O)CCCCCN12
test.value: > 100 µM (inactive)

Query: GI50; subject: Cc1cccc(-c2cc(=S)c3cc(N4CCCC4)ccc3[nH]2)c1 > 100 µM (inactive)

GI50 lookup needed for COc1ccc2c(c1OC)C(=O)C2 , thanks. > 100 µM (inactive)

Could you tell me which GI50 is on file for Cc1ccc(-c2c(C#N)c(O)n(NS(=O)(=O)c3ccccc3)c(=O)c2C#N)cc1 ? > 100 µM (inactive)

Please report the recorded GI50 for OCC(O)C(O)C(C=NNc1ncnc2ccc(Br)cc12)=NNc1ncnc2ccc(Br)cc12 (centres undefined) . 1.45 µM (inactive)

Could you share which GI50 value was measured for CCCCCC(=O)N[C@@H](c1ccccc1)C(O)C(=O)OC1C[C@@]2(O)C(OC(=O)c3ccccc3)C3[C@](C)(C(=O)[C@H](O)C(=C1C)C2(C)C)C(OC1OCC(O)C(O)C1O)C[C@H]1OC[C@@]31OC(C)=O (some centres undefined) ? 2.7 µM (inactive)

// GI50 lookup, key: [N-]=[N+]=NC[C@H]1OCO[C@H](CN=[N+]=[N-])[C@H]2OCCOCCOc3ccccc3OCCOCCO[C@@H]21 > 100 µM (inactive)

Given O=C1NN=C(O)C2C3c4ccccc4C(c4ccccc43)C12 (centres undefined) , state its recorded GI50. > 100 µM (inactive)

###

Measured GI50 of individual entries
system: EKVX; assay: NCI tumour cell line growth inhibition, 48 h
Active and inactive are the calls of the source. Rule as the data show it: active = GI50 up to about 1.1 µM and inactive = higher.

molecule: Cc1c2c(OCC(O)CN3CCN(c4ccccc4)CC3)nn(C)c(=O)c2c(C)n1-c1ccccc1 (centres undefined)
test.value: 34.8 µM (inactive)

Form field: GI50 recorded for CCC/C=C/c1cc2c(cc1O)CC[C@@H]1[C@@H]2CC[C@]2(C)[C@@H](O)CC[C@@H]12 with EKVX (enter value) 19.2 µM (inactive)

Under EKVX: GI50 value of Cc1c(N)nc(C2CC(=O)N2CC(N)C(N)=O)nc1C(=O)NC(C(=O)NC(C)C(O)C(C)C(=O)NC(C(=O)NCCc1nc(-c2nc(C(=O)NCCNCC(C)O)cs2)cs1)C(C)O)C(OC1OC(CO)C(O)C(O)C1OC1OC(CO)C(O)C(OC(N)=O)C1O)c1c[nH]cn1 (centres undefined) ? > 41.1 µM (inactive)

###

test system: HL-60; assay: NCI tumour cell line growth inhibition, 48 h
The source made the active and inactive calls. Rule as the data show it: active = GI50 up to about 1.1 µM and inactive = higher.
API: response.call in active, inactive

Worked cases, answers included:
compound: CC1(C)OC2C(CO)OC(N/C(=N/C#N)Oc3ccccc3)C2O1 (stereo not given)
group: inactive

compound: O=P(O)(Cc1ccccc1)c1ccccc1-c1ccccc1
group: inactive

compound: COc1ccc2c(c1)C1OCCNC1CC2 (stereo not given)
group: inactive

compound: N#Cc1cccc(C2ON=C(c3ccc([N+](=O)[O-])cc3)N2C23CC4CC(CC(C4)C2)C3)c1 (stereo not given)
group: inactive

compound: [O-]c1c2c(nn1-c1ccc(F)cc1)c1ccccc1c[n+]2Cc1ccccc1
group: active

compound: O=C1CC2C(=O)C1C(C(=O)O)C2C(=O)O (stereo not given)
group: inactive

compound: CC(=O)NC1C(OCc2ccccc2)OC(CO)C(O)C1OC(C)C(=O)N[C@@H](C)C(=O)N[C@H](CCC(=O)OCCNc1c2ccccc2nc2cccc([N+](=O)[O-])c12)C(N)=O (stereo not given in full)
group: active

compound: CC(C)C1OC(=O)C=C1Sc1ccccc1 (stereo not given)
group: inactive

compound: CCC1CN(C(=O)c2ccccc2)C(Cc2c[nH]c3ccccc23)C(=O)C1CC(=O)OC (stereo not given)
group: inactive

Consider the record given below.
Please let me know the test result on file for COc1ccc(/C(CC2OC(=O)c3ccccc32)=N\NC(=O)C[N+](C)(C)C)cc1 (stereo not given) . inactive

###

Listed next: entries and their corresponding GI50.
tested on: RXF 393; assay: NCI tumour cell line growth inhibition, 48 h
The source made the active and inactive calls. Cut-off read from the data, not from the text of the source: active = GI50 up to about 1.1 µM and inactive = higher.

molecule: S=C1SSC2N=CC=CC12 (stereo unspecified)
GI50: 46.5 µM (inactive)
--
molecule: O=P(O)(Cc1ccccc1)c1ccccc1-c1ccccc1
GI50: 54.6 µM (inactive)
--
molecule: C[O+]=C1C=CC(=C2SC(c3ccccc3)(c3ccccc3)c3ccccc32)C=C1.[O-][Cl+3]([O-])([O-])[O-]
GI50: 11.8 µM (inactive)
--
molecule: COc1ccc(-c2oc3cc(OC)ccc3c(=O)c2O)cc1
GI50: 3.15 µM (inactive)
--
molecule: N#CCc1nc(Cc2ccccc2)n[nH]1
GI50: > 100 µM (inactive)

Next:
Tell me reported GI50 for C#CCNC(CS)C(=O)O (stereo unspecified) , tested with RXF 393. > 100 µM (inactive)

###

Consider the following molecules and their measured GI50 readings.
tested on: SF-295; test: NCI tumour cell line growth inhibition, 48 h
Activity calls are given as the source filed them. Cut-off read from the data, not from the text of the source: active = GI50 up to about 1.1 µM and inactive = higher. Residues, ends and D or L forms follow the SMILES beside them. *: point of attachment. Boc = CC(C)(C)OC(=O)*; Bz = O=C(c1ccccc1)*

As a guide, the following entries are already answered.
molecule: CC(=O)Oc1cc(OC(C)=O)c2c(C)cc(=O)oc2c1
system.under.test: SF-295
GI50: > 100 µM (inactive)
//
molecule: NC1N=Nc2ccccc21 (stereo unspecified)
system.under.test: SF-295
GI50: > 100 µM (inactive)
//
molecule: CNC(=S)N(C)C(=S)Nn1c(=O)c(C)nn(C)c1=S
system.under.test: SF-295
GI50: > 100 µM (inactive)
//
molecule: CCOC(=O)C1(C/C=C\CBr)CCCCCCCCCCC1=O (stereo unspecified)
system.under.test: SF-295
GI50: 16.9 µM (inactive)
//
molecule: O=C1c2ccccc2S(=O)(=O)c2ccccc21
system.under.test: SF-295
GI50: > 100 µM (inactive)

Next:
Identify the measured GI50 of CC(NC(=O)C(Cc1ccc(OC(=O)c2ccccc2)cc1)NC(=O)OC(C)(C)C)C(=O)NC(Cc1ccccc1)C(=O)NCC(N)=O (stereo unspecified) (Boc-Y(Bz)AFG-NH2; configuration not given here) for SF-295. 18.7 µM (inactive)
